# System: Acinetobacter baumannii (Egypt, V9)
# Assay explanation: MIC-assay, Mueller-Hinton broth with G-block alginate, 384-well, OD600
# Condition info: Table 9, G-block (OligoCF-5/20) 6%
Measured property: MIC (µg/mL)

| Sample smiles | Bound sign | Numeric value |
| --- | --- | --- |
| CC[C@H]1OC(=O)[C@H](C)[C@@H](O[C@H]2C[C@@](C)(OC)[C@@H](O)[C@H](C)O2)[C@H](C)[C@@H](O[C@@H]2O[C@H](C)C[C@H](N(C)C)[C@H]2O)[C@](C)(O)C[C@@H](C)C(=O)[C@H](C)[C@@H](O)[C@]1(C)O | = | 1 |
| CC[C@H]1OC(=O)[C@H](C)[C@@H](O[C@H]2C[C@@](C)(OC)[C@@H](O)[C@H](C)O2)[C@H](C)[C@@H](O[C@@H]2O[C@H](C)C[C@H](N(C)C)[C@H]2O)[C@](C)(O)C[C@@H](C)/C(=N\OCOCCOC)[C@H](C)[C@@H](O)[C@]1(C)O | = | 4 |
| C[C@H]1[C@H](NC(=O)/C(=N\OC(C)(C)C(=O)O)c2csc(N)n2)C(=O)N1S(=O)(=O)O | > | 16 |
| CN(C)[C@@H]1C(O)=C(C(N)=O)C(=O)[C@@]2(O)C(O)=C3C(=O)c4c(O)cccc4[C@@](C)(O)[C@H]3[C@H](O)[C@@H]12 | = | 1 |
| C[C@@H](O)[C@H]1C(=O)N2C(C(=O)O)=C(SCCN=CN)C[C@H]12 | = | 2 |
| CC[C@H]1OC(=O)[C@H](C)[C@@H](O[C@H]2C[C@@](C)(OC)[C@@H](O)[C@H](C)O2)[C@H](C)[C@@H](O[C@@H]2O[C@H](C)C[C@H](N(C)C)[C@H]2O)[C@](C)(O)C[C@@H](C)[C@@H]2N[C@@H](COCCOC)O[C@H]([C@H]2C)[C@]1(C)O | < | 1 |
| O=C(O)c1cn(C2CC2)c2cc(N3CCNCC3)c(F)cc2c1=O | = | 8 |
| CC(C)(O/N=C(\C(=O)N[C@@H]1C(=O)N2C(C(=O)[O-])=C(C[n+]3ccccc3)CS[C@H]12)c1csc(N)n1)C(=O)O | > | 16 |
| CC[C@H]1OC(=O)[C@H](C)[C@@H](O[C@H]2C[C@@](C)(OC)[C@@H](O)[C@H](C)O2)[C@H](C)[C@@H](O[C@@H]2O[C@H](C)C[C@H](N(C)C)[C@H]2O)[C@](C)(O)C[C@@H](C)CN(C)[C@H](C)[C@@H](O)[C@]1(C)O | < | 1 |

====

# Tested on: Pseudomonas aeruginosa ATCC 39324, mucoid type strain (R79)
# Assay explanation: MIC assay, CAMHB with alginate oligomer, no visible growth
# Assay type: cell-based
# Condition info: Pseudomonas aeruginosa, ATCC39324, Table 1; R79; OligoCF-5/20 +6% G; read-out: MIC

| Compound | Bound sign | MIC / µg/mL |
| --- | --- | --- |
| O=C(O)c1cn(C2CC2)c2cc(N3CCNCC3)c(F)cc2c1=O [Ciprofloxacin] | = | 0.0312 |
| CN(C)[C@@H]1C(O)=C(C(N)=O)C(=O)[C@@]2(O)C(O)=C3C(=O)c4c(O)cccc4[C@@](C)(O)[C@H]3[C@H](O)[C@@H]12 [Oxytetracycline] | = | 4 |
| C[C@H]1[C@H](NC(=O)/C(=N\OC(C)(C)C(=O)O)c2csc(N)n2)C(=O)N1S(=O)(=O)O [Aztreonam] | < | 1 |

====

# Tested on: Pseudomonas aeruginosa CFA 24-1, clinical mucoid strain (R80)
# Assay explanation: MIC assay, CAMHB with alginate oligomer, no visible growth
# Assay type: cell-based
# Condition info: Pseudomonas aeruginosa, Table 1; R80; OligoCF-5/20 +10% G; read-out: MIC

| Compound | Bound sign | MIC, µg/mL |
| --- | --- | --- |
| C[C@@H](O)[C@H]1C(=O)N2C(C(=O)O)=C(S[C@@H]3CN[C@H](C(=O)N(C)C)C3)[C@H](C)[C@H]12 [Meropenem] | < | 1 |
| CN(C)[C@@H]1C(O)=C(C(N)=O)C(=O)[C@@]2(O)C(O)=C3C(=O)c4c(O)cccc4[C@@](C)(O)[C@H]3[C@H](O)[C@@H]12 [Oxytetracycline] | = | 4 |
| C[C@H]1[C@H](NC(=O)/C(=N\OC(C)(C)C(=O)O)c2csc(N)n2)C(=O)N1S(=O)(=O)O [Aztreonam] | < | 1 |
| CC(C)(O/N=C(\C(=O)N[C@@H]1C(=O)N2C(C(=O)[O-])=C(C[n+]3ccccc3)CS[C@H]12)c1csc(N)n1)C(=O)O [Ceftazidime] | < | 1 |
| CC[C@H]1OC(=O)[C@H](C)[C@@H](O[C@H]2C[C@@](C)(OC)[C@@H](O)[C@H](C)O2)[C@H](C)[C@@H](O[C@@H]2O[C@H](C)C[C@H](N(C)C)[C@H]2O)[C@](C)(O)C[C@@H](C)CN(C)[C@H](C)[C@@H](O)[C@]1(C)O [Azithromycin] | = | 8 |

====

# MIC annotations
# System: Staphylococcus aureus (MRSA) U50
# Assay explanation: MIC-assay, Mueller-Hinton broth with G-block alginate, 384-well, OD600 (Table 12)
# Assay type: cell-based
# Condition info: MRSA 1040s, U50 MDR, G-block (OligoCF-5/20) 2%, read-out: MIC
# From the text: Minimum inhibitory concentration (MICs) of different antibiotics for strains of Streptococcus oralis and Staphylococcus aureus (MRSA) displaying MDR phenotypes in the presence of varying concentrations of OligoCF-5/20 (0-10%). (MIC values are expressed in μg ml^−1).

| Sample smiles | Subject of test | Bound sign | MIC (µg/mL) |
| --- | --- | --- | --- |
| C[C@H]1[C@H](NC(=O)/C(=N\OC(C)(C)C(=O)O)c2csc(N)n2)C(=O)N1S(=O)(=O)O | Staphylococcus aureus (MRSA) U50 | = | 1020 |
| CC(C)(O/N=C(\C(=O)N[C@@H]1C(=O)N2C(C(=O)[O-])=C(C[n+]3ccccc3)CS[C@H]12)c1csc(N)n1)C(=O)O | Staphylococcus aureus (MRSA) U50 | = | 16 |
| C[C@@H](O)[C@H]1C(=O)N2C(C(=O)O)=C(SCCN=CN)C[C@H]12 | Staphylococcus aureus (MRSA) U50 | = | 0.0625 |
| CC[C@H]1OC(=O)[C@H](C)[C@@H](O[C@H]2C[C@@](C)(OC)[C@@H](O)[C@H](C)O2)[C@H](C)[C@@H](O[C@@H]2O[C@H](C)C[C@H](N(C)C)[C@H]2O)[C@](C)(O)C[C@@H](C)[C@@H]2N[C@@H](COCCOC)O[C@H]([C@H]2C)[C@]1(C)O | Staphylococcus aureus (MRSA) U50 | = | 512 |
| O=C(O)c1cn(C2CC2)c2cc(N3CCNCC3)c(F)cc2c1=O | Staphylococcus aureus (MRSA) U50 | = | 32 |
| CN(C)[C@@H]1C(O)=C(C(N)=O)C(=O)[C@@]2(O)C(O)=C3C(=O)c4c(O)cccc4[C@@](C)(O)[C@H]3[C@H](O)[C@@H]12 | Staphylococcus aureus (MRSA) U50 | = | 2 |
| CC[C@H]1OC(=O)[C@H](C)[C@@H](O[C@H]2C[C@@](C)(OC)[C@@H](O)[C@H](C)O2)[C@H](C)[C@@H](O[C@@H]2O[C@H](C)C[C@H](N(C)C)[C@H]2O)[C@](C)(O)C[C@@H](C)/C(=N\OCOCCOC)[C@H](C)[C@@H](O)[C@]1(C)O | Staphylococcus aureus (MRSA) U50 | = | 1020 |
| CC[C@H]1OC(=O)[C@H](C)[C@@H](O[C@H]2C[C@@](C)(OC)[C@@H](O)[C@H](C)O2)[C@H](C)[C@@H](O[C@@H]2O[C@H](C)C[C@H](N(C)C)[C@H]2O)[C@](C)(O)C[C@@H](C)C(=O)[C@H](C)[C@@H](O)[C@]1(C)O | Staphylococcus aureus (MRSA) U50 | > | 1020 |

====

# Tested on: strains of E. coli displaying MDR phenotypes
# Assay explanation: MIC-assay, Mueller-Hinton broth with G-block alginate, 384-well, OD600 (Table 11)
# Format: cell-based
# Condition info: Escherichia coli, Escherichia coli (5702, Wales, V11) MDR; G-block (OligoCF-5/20) 0%; read-out: MIC
# strict inequality: MIC < 100 mg/L yields Y, everything else yields N

| Compound | Discrete label |
| --- | --- |
| CC[C@H]1OC(=O)[C@H](C)[C@@H](O[C@H]2C[C@@](C)(OC)[C@@H](O)[C@H](C)O2)[C@H](C)[C@@H](O[C@@H]2O[C@H](C)C[C@H](N(C)C)[C@H]2O)[C@](C)(O)C[C@@H](C)CN(C)[C@H](C)[C@@H](O)[C@]1(C)O [Azithromycin] | Y |
| C[C@@H](O)[C@H]1C(=O)N2C(C(=O)O)=C(SCCN=CN)C[C@H]12 [Imipenem] | Y |
| CC[C@H]1OC(=O)[C@H](C)[C@@H](O[C@H]2C[C@@](C)(OC)[C@@H](O)[C@H](C)O2)[C@H](C)[C@@H](O[C@@H]2O[C@H](C)C[C@H](N(C)C)[C@H]2O)[C@](C)(O)C[C@@H](C)[C@@H]2N[C@@H](COCCOC)O[C@H]([C@H]2C)[C@]1(C)O [Dirithromycin] | N |
| C[C@H]1[C@H](NC(=O)/C(=N\OC(C)(C)C(=O)O)c2csc(N)n2)C(=O)N1S(=O)(=O)O [Aztreonam] | N |
| CN(C)[C@@H]1C(O)=C(C(N)=O)C(=O)[C@@]2(O)C(O)=C3C(=O)c4c(O)cccc4[C@@](C)(O)[C@H]3[C@H](O)[C@@H]12 [Oxytetracycline] | Y |
| CC[C@H]1OC(=O)[C@H](C)[C@@H](O[C@H]2C[C@@](C)(OC)[C@@H](O)[C@H](C)O2)[C@H](C)[C@@H](O[C@@H]2O[C@H](C)C[C@H](N(C)C)[C@H]2O)[C@](C)(O)C[C@@H](C)/C(=N\OCOCCOC)[C@H](C)[C@@H](O)[C@]1(C)O [Roxithromycin] | N |
